molecular target: 11β-HSD1 (Homo sapiens); construct: detecting cortisol generated from cortisterone by human liver microsomes; from tissue; host or cells: human liver microsomes; test: In vitro inhibition of 11β-HSD1, HTRF detection of cortisol generated from cortisone by human liver microsomes; type: biochemical; settings: 11β-HSD IC50 (nM), 1 hour at 37° C., pH 6.0, NADPH 200 μM, cortisone 80 nM, inhibition relative to carbenoxolone signal
Rule: measured IC50 below 300 nM gets satisfied; anything equal to or greater than 300 nM gets not satisfied.

- compound: "Cc1nc(-c2ccc3c(c2)[C@]2(C)CCN(C(=O)c4ccc5nc[nH]c5c4)[C@H](C3)[C@H]2C)no1"
  assigned.class: "satisfied"
- compound: "CCOC(=O)c1ccc2c(c1)CC1N(C(=O)c3ccc4nc[nH]c4c3)CCC2(C)C1(C)C (stereo not shown)"
  assigned.class: "not satisfied"

Now turn to the next compound.
Ask: For `CC1(C)[C@H]2Cc3ccccc3[C@]1(C)CCN2C(=O)c1ccc2ccccc2c1` , is the recorded IC50 below the cut-off of 300 nM?
Result: not satisfied

----------
Target: 11β-HSD1 (Homo sapiens, UniProt P28845)
Construct: detecting cortisol generated from cortisterone by human liver microsomes; from tissue; host or cells: human liver microsomes
Sequence (P28845 whole entry): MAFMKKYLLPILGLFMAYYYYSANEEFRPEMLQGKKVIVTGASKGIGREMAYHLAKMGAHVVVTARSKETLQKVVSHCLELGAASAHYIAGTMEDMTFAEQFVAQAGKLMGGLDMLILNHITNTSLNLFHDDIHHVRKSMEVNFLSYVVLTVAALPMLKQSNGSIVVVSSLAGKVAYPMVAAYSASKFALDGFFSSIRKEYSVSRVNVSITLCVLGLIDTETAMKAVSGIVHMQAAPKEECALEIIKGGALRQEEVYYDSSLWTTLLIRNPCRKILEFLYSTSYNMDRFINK
Assay: In vitro inhibition of 11β-HSD1, HTRF detection of cortisol generated from cortisone by human liver microsomes
Type: biochemical
Conditions: 11β-HSD IC50 (nM), 1 hour at 37° C., pH 6.0, NADPH 200 μM, cortisone 80 nM, inhibition relative to carbenoxolone signal
Description: Cortisol generated in the reaction is then detected with a competitive immunoassay, involving two HTRF conjugates: cortisol linked to XL665 and anti-cortisol antibody labeled with Europium cryptate. The incubation period for detection reaction was typically 2 hours. […] The ratio of the two emission signals is then calculated (Em665*10000/Em615). […] Percent inhibition of each compound was determined relative to the carbenoxolone signal and IC50 curves were generated.
Each item that follows carries a reported log10 of IC50.
Please interpret these as log10 of IC50 where IC50 is in nM.

Example cases with answers are listed next.
- compound: "C[C@@H]1[C@H]2Cc3ccc(C#N)cc3[C@]1(C)CCN2C(=O)c1ccc2nc[nH]c2c1 [Example 84]"
  log10 of IC50: 2.14
- compound: "CC1(C)[C@H]2Cc3c(O)cccc3[C@]1(C)CCN2C(=O)c1ccc2c(c1)OCCO2 [Example 20]"
  log10 of IC50: 2.40

Ask: Fill in: log10 of IC50 of Cc1cc(C(=O)N2CC[C@@]3(C)c4cccc(O)c4C[C@@H]2C3(C)C)ccc1C(=O)N1CCCC1 [Example 35] is ___
Result: 2.83

Ask: Fill in: log10 of IC50 of C[C@@H]1[C@H]2Cc3ccc(-c4ccc(=O)n(C)n4)cc3[C@]1(C)CCN2C(=O)c1ccc2nc[nH]c2c1 [Example 290] is ___
Result: 1.86

Ask: Fill in: log10 of IC50 of CC1(C)[C@H]2Cc3ccccc3[C@]1(C)CCN2C(=O)c1ccc(S(N)(=O)=O)cc1 [Example 342] is ___
Result: 2.57

Ask: Fill in: log10 of IC50 of CC1(C)[C@H]2Cc3c(O)cccc3[C@]1(C)CCN2C(=O)c1cccc2[nH]cnc12 [Example 18] is ___
Result: 3.57

Ask: Fill in: log10 of IC50 of O=C(c1ccc2nc[nH]c2c1)N1CCC2(C(=O)O)CC1Cc1ccc(O)cc12 (stereo not drawn) [Example 213] is ___
Result: 3.47

Ask: Fill in: log10 of IC50 of CC1(O)CCc2ccc(C(=O)N3CC[C@@]4(C)c5ccccc5C[C@@H]3C4(C)C)cc21 (stereo partly drawn) [Example 292] is ___
Result: 2.70

Ask: Fill in: log10 of IC50 of CN(C)S(=O)(=O)c1ccc2c(c1)[C@]1(C)CCN(C(=O)c3ccc4nc[nH]c4c3)[C@H](C2)C1(C)C [Example 201] is ___
Result: 1.72

----------
molecular target: 11β-HSD1 (Homo sapiens); construct: detecting cortisol generated from cortisterone by human liver microsomes; from tissue; host or cells: human liver microsomes; assay: In vitro inhibition of 11β-HSD1, HTRF detection of cortisol generated from cortisone by human liver microsomes; assay type: biochemical; conditions: 11β-HSD IC50 (nM), 1 hour at 37° C., pH 6.0, NADPH 200 μM, cortisone 80 nM, inhibition relative to carbenoxolone signal
Note to self: class = bucket of IC50, per low bin (below 400 nM), mid bin (400 nM to below 1000 nM), high bin (1000 nM or more)

- molecule: "CCOC(=O)c1cccc2c1C[C@H]1N(C(=O)c3ccc4nc[nH]c4c3)CC[C@]2(C)C1(C)C"
  assigned.class: "high bin"
- molecule: "Cc1cc(C(=O)N2CC[C@@]3(C)c4cccc(O)c4C[C@@H]2C3(C)C)n(C)n1"
  assigned.class: "high bin"
- molecule: "C[C@@H]1[C@H]2Cc3ccc(C(=O)N(C)C)cc3[C@]1(C)CCN2C(=O)c1ccc2nc[nH]c2c1"
  assigned.class: "low bin"
- molecule: "Cc1ccc(C(=O)N2CC[C@@]3(C)c4cccc(O)c4C[C@@H]2C3(C)C)cc1"
  assigned.class: "mid bin"
- molecule: "CC1(C)[C@H]2Cc3ccccc3[C@]1(C)CCN2C(=O)c1ccc(N)c(Cl)c1"
  assigned.class: "low bin"

Ask: Which bin, given its IC50, does CC1(C)C2CCN(C(=O)c3ccc4nc[nH]c4c3)C1Cc1c(O)cccc12 (centres unmarked) occupy?
Result: low bin

Ask: Which bin, given its IC50, does `Cc1nc2ccc(C(=O)N3CC[C@@]4(C)c5cccc(O)c5C[C@@H]3C4(C)C)cc2[nH]1` occupy?
Result: high bin

Ask: Which bin, given its IC50, does `Cc1ccoc1C(=O)N1CC[C@@]2(C)c3cc(O)ccc3C[C@@H]1[C@@H]2C` occupy?
Result: high bin

Ask: Which bin, given its IC50, does Cc1ccccc1C(=O)N1CCC2(C)c3cc(O)ccc3CC1C2C (centres unmarked) occupy?
Result: high bin

Ask: Which bin, given its IC50, does Cc1cc2c(cc1O)[C@]1(C)CCN(C(=O)c3ccc4nc[nH]c4c3)[C@H](C2)C1(C)C (stereo in doubt) occupy?
Result: low bin

Ask: Which bin, given its IC50, does `COC[C@H]1CCCN1C(=O)c1cccc(C(=O)N2CC[C@@]3(C)c4cccc(O)c4C[C@@H]2C3(C)C)c1` occupy?
Result: mid bin

Ask: Which bin, given its IC50, does `CC1(C)[C@H]2Cc3c(O)cccc3[C@]1(C)CCN2C(=O)c1coc2ccccc12` occupy?
Result: mid bin

Ask: Which bin, given its IC50, does CC12CCN(C(=O)c3ccc4nc[nH]c4c3)C(Cc3cccc(C#N)c31)C2(C)C (centres unmarked) occupy?
Result: low bin

----------
molecular target: 11β-HSD1 (Homo sapiens); construct: detecting cortisol generated from cortisterone by human liver microsomes; from tissue; host or cells: human liver microsomes; experiment: In vitro inhibition of 11β-HSD1, HTRF detection of cortisol generated from cortisone by human liver microsomes; type: biochemical; details: 11β-HSD IC50 (nM), 1 hour at 37° C., pH 6.0, NADPH 200 μM, cortisone 80 nM, inhibition relative to carbenoxolone signal
Rule: measured IC50 below 200 nM gets rule met; anything equal to or greater than 200 nM gets rule not met.

// below: answered molecules
- molecule: "COC(=O)C12CCN(C(=O)c3ccc4nc[nH]c4c3)C(Cc3ccc(O)cc31)C2 (centres unmarked)"
  assigned.class: "rule not met"
- molecule: "CC1(C)[C@H]2Cc3c(F)cccc3[C@]1(C)CCN2C(=O)c1ccc2nc[nH]c2c1"
  assigned.class: "rule met"
- molecule: "CC1(C)[C@H]2Cc3cc(C#N)ccc3[C@]1(C)CCN2C(=O)c1ccc2nc[nH]c2c1"
  assigned.class: "rule met"
- molecule: "CC12CCN(C(=O)c3ccc4nc[nH]c4c3)C(Cc3cccc(O)c31)C2(C)C (centres unmarked)"
  assigned.class: "rule met"
- molecule: "COC(=O)c1ccc2c(c1)[C@]1(C)CCN(C(=O)c3ccc4nc[nH]c4c3)[C@H](C2)[C@H]1C"
  assigned.class: "rule not met"
- molecule: "CC1(C)[C@H]2Cc3c(O)cccc3[C@]1(C)CCN2C(=O)c1csc2ccccc12"
  assigned.class: "rule not met"
- molecule: "CCN(CC)C(=O)c1ccc(C(=O)N2CC[C@@]3(C)c4cccc(O)c4C[C@@H]2C3(C)C)cc1"
  assigned.class: "rule not met"
- molecule: "CC1(C)[C@H]2Cc3ccc(S(N)(=O)=O)cc3[C@]1(C)CCN2C(=O)c1ccc2nc[nH]c2c1"
  assigned.class: "rule met"

Ask: For CNC(=O)c1ccc2c(c1)CC1N(C(=O)c3ccc4nc[nH]c4c3)CCC2(C)C1(C)C (centres unmarked) , is the recorded IC50 below the cut-off of 200 nM?
Result: rule not met

Ask: For `C[C@@H]1[C@H]2Cc3ccc(-c4nnn[nH]4)cc3[C@]1(C)CCN2C(=O)c1ccc2nc[nH]c2c1` , is the recorded IC50 below the cut-off of 200 nM?
Result: rule not met

Ask: For CC[C@]12CCN(C(=O)c3ccc4nc[nH]c4c3)[C@H](Cc3ccc(O)cc31)[C@H]2C (racemic) , is the recorded IC50 below the cut-off of 200 nM?
Result: rule met
